Measured values drawn from patent US8614290B2 for this set.

- TEST TARGET: human CXCR4 (Homo sapiens, UniProt P61073)
- Sequence (P61073 whole entry): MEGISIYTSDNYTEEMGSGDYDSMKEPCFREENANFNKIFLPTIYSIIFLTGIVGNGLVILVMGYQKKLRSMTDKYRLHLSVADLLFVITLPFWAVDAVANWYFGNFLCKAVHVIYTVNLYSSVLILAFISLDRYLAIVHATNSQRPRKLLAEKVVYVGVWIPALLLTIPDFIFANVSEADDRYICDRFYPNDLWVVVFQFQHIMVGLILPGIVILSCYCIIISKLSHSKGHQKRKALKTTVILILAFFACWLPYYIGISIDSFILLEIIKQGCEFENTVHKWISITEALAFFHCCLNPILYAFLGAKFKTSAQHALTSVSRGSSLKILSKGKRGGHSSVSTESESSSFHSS
- METHOD DESCRIPTION: Competitive receptor binding assay on Jurkat cells with 125I-CPCR4 as tracer
- Set-up: Jurkat cells that endogenously express the CXCR4 receptor; endogenous in cells; host or cells: Jurkat cells
- COND: read-out: IC50 (affinity)
- Procedure: For receptor binding assays cells were resuspended in PBS/0.2% BSA. […] Cell bound radioactivity was determined by using a gamma counter. […] IC50 values of the compounds were calculated by nonlinear regression using GraphPad Prism (GraphPad Prism 4.0 Software, Inc., San Diego, Calif., USA). […]
Numbered stars: 1 amine (or outer) side, 2 acyl side, 3 side chain; on linkers, the order of the positions; unused ones are H or OH. Bridge positions count the residues as written; N and C are the ends. Square brackets hold non-standard residues; d marks the D form. Peptide text beside a SMILES is read from it. I, II: the chains in the order shown. Sebacoyl = O=C(CCCCCCCCC(=O)[*:2])[*:1]; 2Nal = N[C@@H](Cc1ccc2ccccc2c1)C(=O)O; Suberoyl = O=C(CCCCCCC(=O)[*:2])[*:1]; Adipoyl = O=C(CCCCC(=O)[*:2])[*:1]; Glutaryl = O=C(CCCC(=O)[*:2])[*:1]; dNMeOrn = CN[C@H](CCCN)C(=O)O
Reported IC50 values for the following molecules.
Value expressed in nM; do not type the unit.

Solved cases (5 shown):
MOLECULE: CN1C(=O)[C@@H](Cc2ccc(O)cc2)NC(=O)CNC(=O)[C@H](Cc2ccc3ccccc3c2)NC(=O)[C@H](CCCNC(=N)N)NC(=O)[C@H]1CCCNC(=O)CCCC(=O)NCCC[C@@H]1C(=O)N[C@@H](CCCNC(=N)N)C(=O)N[C@@H](Cc2ccc3ccccc3c2)C(=O)NCC(=O)N[C@H](Cc2ccc(O)cc2)C(=O)N1C [NMe-D-Orn n = 3] (I: cyclo([2Nal]G[dY][dNMeOrn]R) / II: cyclo([2Nal]G[dY][dNMeOrn]R); linker I:4-II:4 via Glutaryl)
IC50 / nM: 4.28

MOLECULE: CN1C(=O)[C@@H](Cc2ccc(O)cc2)NC(=O)CNC(=O)[C@H](Cc2ccc3ccccc3c2)NC(=O)[C@H](CCCNC(=N)N)NC(=O)[C@H]1CCCNC(=O)CCCCCCC(=O)NCCC[C@@H]1C(=O)N[C@@H](CCCNC(=N)N)C(=O)N[C@@H](Cc2ccc3ccccc3c2)C(=O)NCC(=O)N[C@H](Cc2ccc(O)cc2)C(=O)N1C [NMe-D-Orn n = 6] (I: cyclo([2Nal]G[dY][dNMeOrn]R) / II: cyclo([2Nal]G[dY][dNMeOrn]R); linker I:4-II:4 via Suberoyl)
IC50 / nM: 2.51

MOLECULE: CN1C(=O)[C@@H](Cc2ccc(O)cc2)NC(=O)CNC(=O)[C@H](Cc2ccc3ccccc3c2)NC(=O)[C@H](CCCN=C(N)N)NC(=O)[C@H]1CCCNC(=O)CCCCCCCCC(=O)NCCC[C@@H]1C(=O)N[C@@H](CCCN=C(N)N)C(=O)N[C@@H](Cc2ccc3ccccc3c2)C(=O)NCC(=O)N[C@H](Cc2ccc(O)cc2)C(=O)N1C [NMe-D-Orn n = 8] (I: cyclo([2Nal]G[dY][dNMeOrn]R) / II: cyclo([2Nal]G[dY][dNMeOrn]R); linker I:4-II:4 via Sebacoyl)
IC50 / nM: 2.12

MOLECULE: CN1C(=O)[C@@H](Cc2ccc(O)cc2)NC(=O)CNC(=O)[C@H](Cc2ccc3ccccc3c2)NC(=O)[C@H](CCCNC(=N)N)NC(=O)[C@H]1CCCNC(=O)CCCCCCCCCCCC(=O)NCCC[C@@H]1C(=O)N[C@@H](CCCNC(=N)N)C(=O)N[C@@H](Cc2ccc3ccccc3c2)C(=O)NCC(=O)N[C@H](Cc2ccc(O)cc2)C(=O)N1C [NMe-D-Orn n = 11]
IC50 / nM: 11.1

MOLECULE: N=C(N)NCCC[C@@H]1NC(=O)[C@H](CCCNC(=O)CON=CCCCC=NOCC(=O)NCCC[C@@H]2NC(=O)[C@@H](Cc3ccc(O)cc3)NC(=O)CNC(=O)[C@H](Cc3ccc4ccccc4c3)NC(=O)[C@H](CCCNC(=N)N)NC2=O)NC(=O)[C@@H](Cc2ccc(O)cc2)NC(=O)CNC(=O)[C@H](Cc2ccc3ccccc3c2)NC1=O [Code A22]
IC50 / nM: 58

Please look at the following molecule next.
Qu. May I ask what IC50 has been recorded for CN1C(=O)[C@@H](Cc2ccc(O)cc2)NC(=O)CNC(=O)[C@H](Cc2ccc3ccccc3c2)NC(=O)[C@H](CCCN=C(N)N)NC(=O)[C@H]1CCCNC(=O)CCCCC(=O)NCCC[C@@H]1C(=O)N[C@@H](CCCN=C(N)N)C(=O)N[C@@H](Cc2ccc3ccccc3c2)C(=O)NCC(=O)N[C@H](Cc2ccc(O)cc2)C(=O)N1C [NMe-D-Orn n = 4] (I: cyclo([2Nal]G[dY][dNMeOrn]R) / II: cyclo([2Nal]G[dY][dNMeOrn]R); linker I:4-II:4 via Adipoyl) ?
Ans. 4.42
